Data provenance: patent US20160002357A1

# experimental.system: T1, P-cadherin-ECD1-3-Fc protein (human P-cadherin-Fc) (human, UniProt P22223 108-440)
# T1 construct: Construct was expressed with signal peptide and pro-peptide (PACE co-transfected to process the propeptide); not shown: hinge and CH2 and CH3 domains of human IgG1
# T1 sequence (P22223 108-440): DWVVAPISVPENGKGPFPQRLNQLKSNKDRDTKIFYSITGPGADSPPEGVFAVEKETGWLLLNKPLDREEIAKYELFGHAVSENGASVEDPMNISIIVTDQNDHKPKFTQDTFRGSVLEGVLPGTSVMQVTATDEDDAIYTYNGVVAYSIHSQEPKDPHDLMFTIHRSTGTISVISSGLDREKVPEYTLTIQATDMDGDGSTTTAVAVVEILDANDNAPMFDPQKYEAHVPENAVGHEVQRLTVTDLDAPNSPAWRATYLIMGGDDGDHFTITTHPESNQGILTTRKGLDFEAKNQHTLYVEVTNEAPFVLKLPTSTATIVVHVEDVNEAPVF
# method: phage scFv ELISA, coated P-cadherin-ECD1-3-Fc
# Procedure: P-cadherin-ECD1-3-Fc protein or negative control protein was coated overnight at 4° C. on 96-well Nunc Maxisorp® plates (Thermo Fisher Scientific, Madison, Conn.) at a concentration of 2 μg/mL in PBS+Ca²⁺ and Mg²⁺. […] Signal was developed using TMB (SurModics, Eden Prairie, Minn.), the reaction stopped with H₂SO₄ and the absorbance read at 450 nm on an EnVision® plate reader (Perkin Elmer, Waltham, Mass.).
measured.quantity: Z Score

* anti-P-cadherin scFv 153 alanine-mutant H1.1-Ala (scFv, V domains shown, scFv on phage) VH: EVQLVQSGAEVKKPGASVKVSCKASAYTFTSYGISWVRQAPGQGLEWMGWISAYNGNTNYAQKLQGRVTMTTDTSTSTAYMELRSLRSDDTAVYYCATIDTANAFGIWGQGTMVTVSS VL: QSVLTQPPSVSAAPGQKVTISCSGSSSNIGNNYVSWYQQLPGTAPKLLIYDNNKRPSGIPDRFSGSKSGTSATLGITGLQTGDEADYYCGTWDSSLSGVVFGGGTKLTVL | 0.7
* anti-P-cadherin scFv 153 alanine-mutant H3.8-Ala (scFv, V domains shown, scFv on phage) VH: EVQLVQSGAEVKKPGASVKVSCKASGYTFTSYGISWVRQAPGQGLEWMGWISAYNGNTNYAQKLQGRVTMTTDTSTSTAYMELRSLRSDDTAVYYCATIDTANAFAIWGQGTMVTVSS VL: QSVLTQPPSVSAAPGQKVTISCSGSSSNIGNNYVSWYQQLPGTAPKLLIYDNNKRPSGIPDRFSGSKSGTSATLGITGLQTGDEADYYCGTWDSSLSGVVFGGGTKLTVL | 0.1
